- Test system: serotonin reuptake (3H-5-HT uptake into whole rat brain synaptosomes)
- procedureSummary: Inhibition of 3H-5-HT uptake into rat brain synaptosomes
- Assay type: biochemical
- experimentalContext: at 100 nM
propertyName: Inhibition of serotonin reuptake % inhibition at 100 nM (% inh. at 100 nM)
Numbers only here, please. The scale is % inh. at 100 nM.

Sample records with Inhibition of serotonin reuptake % inhibition at 100 nM:
INSERT INTO measurements (compound, numericvalue) VALUES
  ('CCN(CCCc1c[nH]c2ccc(I)cc12)CCCC1(c2ccc(F)cc2)OCc2cc(C#N)ccc21 (stereo not shown) [Compound 12af]', 38),
  ('COc1cccc(CCN(C)CCCC2(c3ccc(F)cc3)OCc3cc(C#N)ccc32)c1 (stereo not shown) [Compound 4b]', 59),
  ('CN(CCCC1(c2ccc(F)cc2)OCc2cc(C#N)ccc21)CCOc1ccccc1 (stereo not shown) [Compound 4g]', 28),
  ('C=CCN(CCCOc1ccccc1OC)CCCC1(c2ccc(F)cc2)OCc2cc(C#N)ccc21 (stereo not shown) [Compound 4n]', 39),
  ('CCN(CCCc1c[nH]c2ccc(C)cc12)CCCC1(c2ccc(F)cc2)OCc2cc(C#N)ccc21 (stereo not shown) [Compound 12o]', 49);

-- ask Using the record for C=CCN(CCCC1(c2ccc(F)cc2)OCc2cc(C#N)ccc21)CCOCc1ccccc1 (stereo not shown) [Compound 4r] , report its Inhibition of serotonin reuptake % inhibition at 100 nM.
-- reply 19

-- ask Using the record for C=CCN(CCCC1(c2ccc(F)cc2)OCc2cc(C#N)ccc21)CCc1ccccc1OC (stereo not shown) [Compound 4d] , report its Inhibition of serotonin reuptake % inhibition at 100 nM.
-- reply 7

-- ask Using the record for C=CCN(CCCC1(c2ccc(F)cc2)OCc2cc(C#N)ccc21)CCOc1ccccc1 (stereo not shown) [Compound 4i] , report its Inhibition of serotonin reuptake % inhibition at 100 nM.
-- reply 26

-- ask Using the record for C=CCN(CCCOc1cccc(OC)c1)CCCC1(c2ccc(F)cc2)OCc2cc(C#N)ccc21 (stereo not shown) [Compound 4p] , report its Inhibition of serotonin reuptake % inhibition at 100 nM.
-- reply 6

-- ask Using the record for CN(CCCc1c[nH]c2ccc(Br)cc12)CCCC1(c2ccc(F)cc2)OCc2cc(C#N)ccc21 (stereo not shown) [Compound 12aa] , report its Inhibition of serotonin reuptake % inhibition at 100 nM.
-- reply 37

-- ask Using the record for C=CCN(CCCc1cccc(OC)c1)CCCC1(c2ccc(F)cc2)OCc2cc(C#N)ccc21 (stereo not shown) [Compound 4l] , report its Inhibition of serotonin reuptake % inhibition at 100 nM.
-- reply 27

-- ask Using the record for C=CCN(CCCC1(c2ccc(F)cc2)OCc2cc(C#N)ccc21)CCc1cc(OC)ccc1OC (stereo not shown) [Compound 4f] , report its Inhibition of serotonin reuptake % inhibition at 100 nM.
-- reply 4

-- ask Using the record for CCN(CCCc1c[nH]c2ccc(Br)cc12)CCCC1(c2ccc(F)cc2)OCc2cc(C#N)ccc21 (stereo not shown) [Compound 12ad] , report its Inhibition of serotonin reuptake % inhibition at 100 nM.
-- reply 35

-- ask Using the record for C=CCN(CCCC1(c2ccc(F)cc2)OCc2cc(C#N)ccc21)CCc1cccc(OC)c1 (stereo not shown) [Compound 4c] , report its Inhibition of serotonin reuptake % inhibition at 100 nM.
-- reply 4

-- ask Using the record for CCN(CCCC1(c2ccc(F)cc2)OCc2cc(C#N)ccc21)CCc1c[nH]c2ccc(Br)cc12 (stereo not shown) [Compound 12ab] , report its Inhibition of serotonin reuptake % inhibition at 100 nM.
-- reply 50

-- ask Using the record for CCN(CCCC1(c2ccc(F)cc2)OCc2cc(C#N)ccc21)CCc1c[nH]c2ccc(I)cc12 (stereo not shown) [Compound 12ae] , report its Inhibition of serotonin reuptake % inhibition at 100 nM.
-- reply 49

-- ask Using the record for CCCN(CCCC1(c2ccc(F)cc2)OCc2cc(C#N)ccc21)CCc1c[nH]c2c(F)cc(F)cc12 (stereo not shown) [Compound 13g] , report its Inhibition of serotonin reuptake % inhibition at 100 nM.
-- reply 49

-- ask Using the record for CN(CCCc1c[nH]c2ccc(Cl)cc12)CCCC1(c2ccc(F)cc2)OCc2cc(C#N)ccc21 (stereo not shown) [Compound 12r] , report its Inhibition of serotonin reuptake % inhibition at 100 nM.
-- reply 47
